Origin of values: paper PMC7819943

- assayedTarget: OsWRKY34 (Oryza sativa, UniProt Q0JBA9 1-250)
- Sequence (Q0JBA9 entry or part of it): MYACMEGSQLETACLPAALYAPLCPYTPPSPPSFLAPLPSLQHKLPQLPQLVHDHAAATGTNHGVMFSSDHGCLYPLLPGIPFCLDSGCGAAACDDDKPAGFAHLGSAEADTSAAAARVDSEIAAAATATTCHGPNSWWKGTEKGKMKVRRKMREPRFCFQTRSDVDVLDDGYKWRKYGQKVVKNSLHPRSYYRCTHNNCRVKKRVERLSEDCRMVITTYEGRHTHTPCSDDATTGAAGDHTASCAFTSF
- testMethodNotes: protein-binding microarray (RPBM); PBS, 2% BSA, 51.3 ng/ul salmon testes DNA, 50 uM zinc acetate, 200 nM TF, 25 C, 1 h; high values mean tight binding
- assayContext: protein: recombinant; tags: N-terminal polyhistidine and DsRed monomer fusion (pET32a); label: CyDye5-dUTP incorporated in the synthesized complementary strand; 3' TTTTT single-stranded linker to array surface; dsDNA, one strand shown
Over roughly 68,000 sequences, “fluorescence intensity (a.u.)” has its median near 9,100; the highest 2% begin near 16,000. Many of the other results were omitted from the sample, so the highest values are more common in it than they were.
Listed sequences paired with reported binding signal

{"sequenceText": "GTGGACGTTTTTGACTTTGTACTTTCAACGTTTGACCATTCGGAGTCACCTAGTGCAG", "binding signal": "13900 fluorescence intensity (a.u.)"}
{"sequenceText": "CCCGTGTCTTCCCAACCACGTTGACCACGACTTTTTCGTTCGGAGTCACCTAGTGCAG", "binding signal": "9480 fluorescence intensity (a.u.)"}
{"sequenceText": "CCACCGCCCGCCGTCGTCTCTCTCTCTCTCTCTCTCTCTTCGGAGTCACCTAGTGCAG", "binding signal": "9970 fluorescence intensity (a.u.)"}
{"sequenceText": "GTTGTATAGGTTGGTTTTTTATGTATGACGCCGTTGACTTCGGAGTCACCTAGTGCAG", "binding signal": "17100 fluorescence intensity (a.u.)"}
{"sequenceText": "CATGTGCTCAAAGCTTATCTGCATACAAGCCTTCGAGACCCGGAGTCACCTAGTGCAG", "binding signal": "64100 fluorescence intensity (a.u.)"}
{"sequenceText": "GATGACGTTGTTAACTTTTTATCACACGTTTGACCATTCGCGGAGTCACCTAGTGCAG", "binding signal": "8510 fluorescence intensity (a.u.)"}
{"sequenceText": "CACTCGCCACCGCCGCCCACCCGCAACTGCCGCCGACTCCCGGAGTCACCTAGTGCAG", "binding signal": "10800 fluorescence intensity (a.u.)"}
{"sequenceText": "TCCATGCAGTCTTCTTCTTCTGCAGCCTATGCTGTTAGTCCGGAGTCACCTAGTGCAG", "binding signal": "11700 fluorescence intensity (a.u.)"}
{"sequenceText": "CCCGTCAACGCCACCTCACCGTTGACGTTGCCACTCTCTTCGGAGTCACCTAGTGCAG", "binding signal": "16800 fluorescence intensity (a.u.)"}

----------
- assayedTarget: OsWRKY34 (Oryza sativa, UniProt Q0JBA9 1-250)
- testMethodNotes: protein-binding microarray (RPBM); PBS, 2% BSA, 51.3 ng/ul salmon testes DNA, 50 uM zinc acetate, 200 nM TF, 25 C, 1 h; high values mean tight binding
- assayContext: protein: recombinant; tags: N-terminal polyhistidine and DsRed monomer fusion (pET32a); label: CyDye5-dUTP incorporated in the synthesized complementary strand; 3' TTTTT single-stranded linker to array surface; dsDNA, one strand shown
Whole data set: some 68,000 sequences, median “fluorescence intensity (a.u.)” near 9,100, cut for the highest 2% near 16,000. The sample as a whole holds a higher share of the highest values than the screen did.
reportedEndpoint: binding signal

{"sequenceText": "GGCGGCGGCGGGGTGGCCTTGGCCGGGTGCCTTGGTGGATCGGAGTCACCTAGTGCAG", "endpointValue": "10300 fluorescence intensity (a.u.)"}
{"sequenceText": "ACTAGGGTTCTCTTCTCACTCCATCGCTAGCGGCGGCTCACGGAGTCACCTAGTGCAG", "endpointValue": "8340 fluorescence intensity (a.u.)"}
{"sequenceText": "GGCCTGGAGCTCAGTCAAACAGTTTCAGCTCAGCTCTATCCGGAGTCACCTAGTGCAG", "endpointValue": "8520 fluorescence intensity (a.u.)"}
{"sequenceText": "CACGAAGCCAGTCTAACCGCCATGTGTGGGCTTGTTTGACCGGAGTCACCTAGTGCAG", "endpointValue": "8700 fluorescence intensity (a.u.)"}
{"sequenceText": "CGTCGAGTATCTGTATCTCTAAGCATTTCTTGTTGACTTTCGGAGTCACCTAGTGCAG", "endpointValue": "10600 fluorescence intensity (a.u.)"}
{"sequenceText": "CGCACACCACCGCCTACGTAGTAGCTCTGATCGGCGCTGTCGGAGTCACCTAGTGCAG", "endpointValue": "8250 fluorescence intensity (a.u.)"}
{"sequenceText": "ATGGGTTGGTAGAGGGGAGGGAACGCGCGACGGTGGCGAGCGGAGTCACCTAGTGCAG", "endpointValue": "8740 fluorescence intensity (a.u.)"}
{"sequenceText": "TACCTACTTTCTCATCTTAAGCAATCACTTCGACTTTAATCGGAGTCACCTAGTGCAG", "endpointValue": "9820 fluorescence intensity (a.u.)"}
{"sequenceText": "AGCTCATCACTTCTTCTTGCATGCATGCACTACCGTCGGCCGGAGTCACCTAGTGCAG", "endpointValue": "10400 fluorescence intensity (a.u.)"}
{"sequenceText": "CCTTACCGTACAAGGGAGGAGGAGGTGGTGGTGGTGGAGGCGGAGTCACCTAGTGCAG", "endpointValue": "13000 fluorescence intensity (a.u.)"}
{"sequenceText": "AGACGGAGGAGGACAAGGACATAGGGGAGGAGGGGCGAGGCGGAGTCACCTAGTGCAG", "endpointValue": "9530 fluorescence intensity (a.u.)"}
{"sequenceText": "AATTCCCAAAATATACAGTTTTTGTTATTCAGATGTTTACCGGAGTCACCTAGTGCAG", "endpointValue": "8130 fluorescence intensity (a.u.)"}
{"sequenceText": "CAGCAGCGGCGGCGGCGGCGGCGGCGGGGTGGTGGAACCTCGGAGTCACCTAGTGCAG", "endpointValue": "9080 fluorescence intensity (a.u.)"}
{"sequenceText": "GGAGGCGGTGGTGTTGGAGTTGGAGGGCGCGTGGAGGTGGCGGAGTCACCTAGTGCAG", "endpointValue": "12900 fluorescence intensity (a.u.)"}
{"sequenceText": "GTAGCTCGTCGTCACTGCCCATAGTACTCTGGCTTAGCTACGGAGTCACCTAGTGCAG", "endpointValue": "8030 fluorescence intensity (a.u.)"}
{"sequenceText": "GCGGAGGAGGTGGTGGTGGTGGAGGAGGAGGAGGCCAAGGCGGAGTCACCTAGTGCAG", "endpointValue": "19300 fluorescence intensity (a.u.)"}
{"sequenceText": "ACCGGCTCTCTAATCCTTAAATTCTGGCTTTGCTGCTAGTCGGAGTCACCTAGTGCAG", "endpointValue": "9240 fluorescence intensity (a.u.)"}
{"sequenceText": "TAACATTGATTGTTATGTCACTTGTCTGTGGATCAACTCTCGGAGTCACCTAGTGCAG", "endpointValue": "9060 fluorescence intensity (a.u.)"}
{"sequenceText": "CGTTGGATAATCTCTAGTACATGTATATACATTTGGCTCTCGGAGTCACCTAGTGCAG", "endpointValue": "8220 fluorescence intensity (a.u.)"}

----------
- assayedTarget: OsWRKY34 (Oryza sativa, UniProt Q0JBA9 1-250)
- testMethodNotes: protein-binding microarray (RPBM); PBS, 2% BSA, 51.3 ng/ul salmon testes DNA, 50 uM zinc acetate, 200 nM TF, 25 C, 1 h; high values mean tight binding
- assayContext: protein: recombinant; tags: N-terminal polyhistidine and DsRed monomer fusion (pET32a); label: CyDye5-dUTP incorporated in the synthesized complementary strand; 3' TTTTT single-stranded linker to array surface; dsDNA, one strand shown
Whole data set: some 68,000 sequences, median “fluorescence intensity (a.u.)” near 9,100, cut for the highest 2% near 16,000. The sample holds the highest values, similar sequences and a random draw of the others, so the mix is not that of the screen.

{"sequenceText": "TTGCTAAAAAGTCAACGGTGTCAAATATTTCGAAACGGAGCGGAGTCACCTAGTGCAG", "assayedTarget": "OsWRKY34 (Oryza sativa, UniProt Q0JBA9 1-250)", "binding signal": "12300 fluorescence intensity (a.u.)"}
{"sequenceText": "GTCAAACATGTGCTAAAAAGTCAACAGTGTCAAACATTTCCGGAGTCACCTAGTGCAG", "assayedTarget": "OsWRKY34 (Oryza sativa, UniProt Q0JBA9 1-250)", "binding signal": "9540 fluorescence intensity (a.u.)"}
{"sequenceText": "TGTGCTAAAAAAGTCAACGGTGTCAAATATTTCGAAACGGCGGAGTCACCTAGTGCAG", "assayedTarget": "OsWRKY34 (Oryza sativa, UniProt Q0JBA9 1-250)", "binding signal": "14700 fluorescence intensity (a.u.)"}
{"sequenceText": "AATAATAAGAACGGTCAAACATATGCTAAAAAGTCAACGGCGGAGTCACCTAGTGCAG", "assayedTarget": "OsWRKY34 (Oryza sativa, UniProt Q0JBA9 1-250)", "binding signal": "11500 fluorescence intensity (a.u.)"}
{"sequenceText": "GCCCTCGTCGTCGTCCGACCACCCGATCCCGACGAGAACCCGGAGTCACCTAGTGCAG", "assayedTarget": "OsWRKY34 (Oryza sativa, UniProt Q0JBA9 1-250)", "binding signal": "8690 fluorescence intensity (a.u.)"}
